- target_desc: Calmodulin-1 (Homo sapiens) (UniProt P0DP23)
- test_method_notes: CALM1 binders on microarrays, EGTA buffer, profiling panel, biochemical, small-molecule microarray, Cy5-labelled CALM1 (AID 1111);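 also: labelled calmodulin applied in Tris saline Tween buffer holding calcium plus EGTA and DTT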
- conditions_used: Cy5-CALM1 binding fluorescence, higher = more signal
outcome_measure: composite z-score

{"molecule": "COc1ccc(NN2C(C(O)c3cc(C(F)(F)F)cc(C(F)(F)F)c3)C=CC3C(=O)N(C4CCCCC4)C(=O)C32)cc1 (stereo not drawn)", "target_desc": "Calmodulin-1 (Homo sapiens) (UniProt P0DP23)", "outcome_measure": "composite z-score", "test_value": 1.66}
{"molecule": "CCCCCCCCCCC(O)C1C=CC2C(=O)N(C)C(=O)C2N1N1CCCCC1 (stereo not drawn)", "target_desc": "Calmodulin-1 (Homo sapiens) (UniProt P0DP23)", "outcome_measure": "composite z-score", "test_value": -0.311}
{"molecule": "COCCCNC(=O)[C@@H]1c2ccccc2C(=O)N(C2CCCCC2)[C@H]1c1ccc(CO)cc1", "target_desc": "Calmodulin-1 (Homo sapiens) (UniProt P0DP23)", "outcome_measure": "composite z-score", "test_value": -0.28}
{"molecule": "CCCCC(=C=CC[C@H](O)c1ccc(OCCO)cc1)C[C@H](O)c1ccccn1", "target_desc": "Calmodulin-1 (Homo sapiens) (UniProt P0DP23)", "outcome_measure": "composite z-score", "test_value": 0.587}
{"molecule": "C=CCC(OC(C)=O)[C@@H]1[C@@H](N(Cc2ccc(-c3cccc(C(F)(F)F)c3)o2)C(=O)c2cccc3ccccc23)c2cc(OCCCO)ccc2N1C(=O)c1ccc2ccccc2c1 (stereo partly drawn)", "target_desc": "Calmodulin-1 (Homo sapiens) (UniProt P0DP23)", "outcome_measure": "composite z-score", "test_value": -0.34}
{"molecule": "COC(=O)[C@]1(CO)N=C(c2ccc(OCCCO)cc2)O[C@@H]1c1ccccc1CN=[N+]=[N-]", "target_desc": "Calmodulin-1 (Homo sapiens) (UniProt P0DP23)", "outcome_measure": "composite z-score", "test_value": -0.738}
{"molecule": "COCCCN1C(=O)[C@@]2(Cc3ccccc31)c1ccccc1C(=O)N(Cc1ccccc1OC)[C@H]2c1ccc(CO)cc1", "target_desc": "Calmodulin-1 (Homo sapiens) (UniProt P0DP23)", "outcome_measure": "composite z-score", "test_value": 0.0145}
{"molecule": "CC1CC/C=C\\[C@H]2OC34C=CCN(CCN5CCOCC5)C(=O)[C@H]3N(CCCCCCO)C(=O)[C@@H]4C2C(=O)O1 (stereo partly drawn)", "target_desc": "Calmodulin-1 (Homo sapiens) (UniProt P0DP23)", "outcome_measure": "composite z-score", "test_value": -0.482}

----------
- test_method_notes: basal RPMI8226 mitochondrial membrane potential changes, profiling panel, cell-based, JC-1 fluorescence, 24 h, 100 nL compound (AID 1169); also: test concentration not given here
- conditions_used: RPMI8226 myeloma, JC-1 mitochondrial potential fluorescence, higher = more signal
Kindly return criterion met if reported z-score is no lower than -0.5; return criterion not met if it is lower.

{"molecule": "COC(=O)[C@@]1(Cc2ccccc2)[C@H]2c3cc(C(=O)N4CCCC4)n(Cc4ccc(C(F)(F)F)nc4)c3C[C@H]2CN1C(=O)c1ccccc1", "class_assignment": "criterion not met"}
{"molecule": "Cc1c(-c2ccc(-c3ccc(Cl)c(Cl)c3)o2)nc(-c2ccccc2)c2c1CO[Si]2(C(C)C)C(C)C", "class_assignment": "criterion not met"}
{"molecule": "O=C1C2C=CC(C(O)C(c3ccccc3)c3ccccc3)N(Nc3ccccc3)C2C(=O)N1c1ccccc1 (stereo unspecified)", "class_assignment": "criterion met"}
{"molecule": "COCCOC(=O)N1C(=O)[C@@]2(c3cc(C#CC4(O)CCCCCC4)ccc31)[C@H](c1ccc(OCCO)cc1)N1[C@H](c3ccccc3)[C@H](c3ccccc3)OC(=O)[C@H]1[C@@H]2C(N)=O", "class_assignment": "criterion not met"}
{"molecule": "C[N+](C)(C)CCCCCCNC(=O)[C@H]1C[C@H]2C(=O)NCC(=O)N2[C@H]1c1cccc(OCCO)c1", "class_assignment": "criterion met"}
{"molecule": "CC(C)C[C@H]1NC(=O)[C@H](Cc2ccccc2)NC(=O)[C@@]23C(=O)N[C@@H](Cc4ccccc4)C2[C@H](C)[C@@]2(C)O[C@H]2C3/C=C/C/C=C\\CNC1=O (stereo partly specified)", "class_assignment": "criterion met"}
{"molecule": "COC(=O)[C@@H]1N=C(c2ccc(OCCCO)cc2)O[C@@H]1c1ccccc1CN=[N+]=[N-]", "class_assignment": "criterion met"}
{"molecule": "C=C(CCCC)C(=O)CC[C@H](OC(=O)c1cccnc1)c1ccc(CO)o1", "class_assignment": "criterion not met"}
{"molecule": "CCOC(=O)C1=C(C(=O)OCC)N(S(=O)(=O)CC[Si](C)(C)C)[C@H](c2ccccc2)CC1", "class_assignment": "criterion not met"}
{"molecule": "C=CCC(OC(C)=O)[C@@H]1[C@@H](N(Cc2cccc3ccccc23)C(=O)c2ccc(C)cc2)c2cc(OCCCO)ccc2N1C(=O)c1ccc2ccccc2n1 (stereo partly specified)", "class_assignment": "criterion met"}
{"molecule": "COc1ccc(C(O)C2C=CC3C(=O)N(C)C(=O)C3N2Nc2ccc([N+](=O)[O-])cc2[N+](=O)[O-])cc1OCc1ccccc1 (stereo unspecified)", "class_assignment": "criterion met"}
{"molecule": "C[N+](C)(C)CCCC[C@@H]1NC(=O)[C@H]2C[C@@H](C(=O)NCCCCCNC(=O)CS)[C@@H](c3ccc(O)cc3)N2C1=O", "class_assignment": "criterion met"}
{"molecule": "COC(=O)C1(CC(C)C)C=C2C(=C(C(C)C)C(=O)C2C)CN1 (stereo unspecified)", "class_assignment": "criterion met"}
{"molecule": "COCCOC(=O)N1C(=O)[C@@]2(c3ccccc31)[C@H](C(N)=O)[C@H]1C(=O)O[C@H](c3ccccc3)[C@H](c3ccccc3)N1[C@@H]2c1ccc(OCCO)cc1", "class_assignment": "criterion met"}
{"molecule": "CC#CCO[Si](C#CCCCCCC)(C(C)C)C(C)C", "class_assignment": "criterion not met"}
